testedTarget: human glucagon receptor (human) (UniProt P47871)
Sequence (P47871 26-477): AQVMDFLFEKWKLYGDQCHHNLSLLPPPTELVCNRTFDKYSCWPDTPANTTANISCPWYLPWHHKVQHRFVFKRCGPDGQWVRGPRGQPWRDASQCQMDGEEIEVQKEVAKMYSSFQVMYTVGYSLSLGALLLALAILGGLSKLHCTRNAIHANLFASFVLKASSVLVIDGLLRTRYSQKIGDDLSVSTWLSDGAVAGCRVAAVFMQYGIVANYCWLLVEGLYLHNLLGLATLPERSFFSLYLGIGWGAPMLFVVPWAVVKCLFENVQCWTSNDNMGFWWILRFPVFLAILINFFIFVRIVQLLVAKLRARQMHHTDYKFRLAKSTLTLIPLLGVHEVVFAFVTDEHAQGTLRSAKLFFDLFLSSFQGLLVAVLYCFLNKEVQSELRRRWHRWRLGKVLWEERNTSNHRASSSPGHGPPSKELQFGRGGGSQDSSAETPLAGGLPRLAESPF
assayInfo: cell-based or functional assay
property: Relative cAMP EC50 (nM)
A number alone suffices; assume nM.

As a guide, the following entries are already answered.
{"columns": ["binder", "unitOfMeasure", "numericReadout"],
 "data": [
  ["YXQGTXTSDXXIXLDXKAQXEFIEXLVEGGPSSGAPPPTGE (not fully specified; acylated lysine AEEA-γGlu-C18 diacid; non-natural residues; C-terminal amide; synthetic construct; SITE 2: note = 2-Aminoisobutyric Acid; SITE 6: note = alpha-methyl-2-fluoro-L-phenylalanine; SITE 10: note = 3-(4-Pyridyl)-L-alanine; SITE 11: note = alpha-methyl-L-serine; SITE 13: note = alpha-methyl-leucine; SITE 16: note = L-ornithine; SITE 17: note = Lysine is chemically mo) [Example 1152]", "nM", 2.32],
  ["YXQGTXTSDXXIXLDXKAQXXFIEXLIEGGPSSGEPPPEGTGE (synthetic construct; SITE 2: note = 2-Aminoisobutyric Acid; SITE 6: note = alpha-methyl-2-fluoro-L-phenylalanine; SITE 10: note = 3-(4-Pyridyl)-L-alanine; SITE 11: note = alpha-methyl-L-serine; SITE 13: note = alpha-methyl-leucine; SITE 16: note = L-ornithine; SITE 17: note = Lysine is chemically mo) [Example 697]", "nM", 1.71],
  ["YXQGTFTSDXSQXLDKKAQXAFIEYLIAGGPSSGAPPPSGSEE (synthetic construct; SITE 2: note = 2-Aminoisobutyric Acid; SITE 10: note = 3-(4-Pyridyl)-L-alanine; SITE 13: note = alpha-methyl-leucine; SITE 17: note = Lysine is chemically modified through conjugation of the epsilon-amino group of the Lysine side chain with (Glu)-(gamma-Glu)-CO-(CH2)16-CO2H; SIT) [Example 1030]", "nM", 9.42],
  ["YXQGTFTSDXSXXLDKKAQXAFIEXLIEGGPSSGAPPPSGS (synthetic construct; SITE 2: note = 2-Aminoisobutyric Acid; SITE 10: note = 3-(4-Pyridyl)-L-alanine; SITE 12: note = L-ornithine; SITE 13: note = alpha-methyl-leucine; SITE 17: note = Lysine is chemically modified through conjugation of the epsilon-amino group of the Lysine side chain with (gamma-Gl)) [Example 941]", "nM", 11.7],
  ["YXQGTXTSDXSIXLDKKAQXXFIEYLTEGGPSSGEPPPEGSEE (synthetic construct; SITE 2: note = 2-Aminoisobutyric Acid; SITE 6: note = alpha-methyl-2-fluoro-L-phenylalanine; SITE 10: note = 3-(4-Pyridyl)-L-alanine; SITE 13: note = alpha-methyl-leucine; SITE 17: note = Lysine is chemically modified through conjugation of the epsilon-amino group of the Lysine) [Example 652 (SEQ ID NO: 658)]", "nM", 15.3]
]}

Item: YXQGTFTSDFSRXLDKKAQXAFIEYLLEXGPSSGAPPPSGS (synthetic construct; SITE 2: note = 2-Aminoisobutyric Acid; SITE 13: note = alpha-methyl-leucine; SITE 17: note = Lysine is chemically modified through conjugation of the epsilon-amino group of the Lysine side chain with (2-[2-(2-Amino-ethoxy)-ethoxy]-acetyl)-(gamma-Glu)-CO-(CH2) 16-CO2H; SITE 20: n) [Example 79] | Relative cAMP EC50: 3.08
